molecular target: streptavidin, P22629; test: SPR, BIAcore X100, streptavidin coupled to the chip, peptide in solution
Sequence (P22629 37-163 limits assumed): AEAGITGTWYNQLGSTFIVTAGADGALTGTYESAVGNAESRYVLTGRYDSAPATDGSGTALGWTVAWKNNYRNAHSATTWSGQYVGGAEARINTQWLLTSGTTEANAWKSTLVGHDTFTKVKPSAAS
test readout: Kd (µM)

H-QNDHPQNGGQ-OH    320

[P] QNDHPQNGGQ (modifications not checked)
[Q] H-LYDHPQNGGQ-OH
Exam item: Kindly identify the item with the lower Kd figure among these two: P and Q Give the label of your selection.
Marked response: P
(P: 10.8 µM, Q: 100 µM)

[I] NQPWQ (modifications not checked) [head-to-tail cyclic NQpWQ peptide]
[II] LYDHPQNGGQ (modifications not checked)
Exam item: Kindly identify the item with the lower Kd figure among these two: I and II Give the label of your selection.
Marked response: II
(II: 9.4 µM, I: 61.3 µM)
